Biological target: Glucocorticoid receptor (Homo sapiens)
Test: qHTS assay for small molecule antagonists of glucocorticoid receptor signaling (AID 588533);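 further: cells stimulated with 2 nM dexamethasone as agonist; on the % scale 0 is the no-effect control and ±100 the full control effect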
Settings: HeLa MMTV-bla, GRE beta-lactamase ratio, antagonist mode, 18 h; series mostly up to 76.8 µM
Inconclusive results are not listed. The source made the active and inactive calls. The call rests on the fitted dose curve; in most records, active means well fitted inhibition curve with a large enough effect in the signal ratio, with a control signal flat (not every such curve was filed as active); inconclusive means small, poorly fitted or top-dose-only effect, or effect the other way, or a change in a side signal; inactive means flat fitted curve, though single readings scatter; the % refers to the signal ratio.
Parameter call: string, one of true for active, false for inactive

Record lookup: outcome of this test for CC(C)(c1ccccc1)c1cc(-n2nc3ccccc3n2)c(O)c(C(C)(C)c2ccccc2)c1 ?
false

Record lookup: outcome of this test for ClC1=C(Cl)C2(Cl)C3C4OC4C(Cl)C3C1(Cl)C2(Cl)Cl (stereo not drawn) ?
false

Record lookup: outcome of this test for CCOP(=O)(SC(C)CC)SC(C)CC (stereo not drawn) ?
false

Record lookup: outcome of this test for CC(C)(C)C(O)C(Oc1ccc(-c2ccccc2)cc1)n1cncn1 (stereo not drawn) ?
false

====

Biological target: Nuclear receptor subfamily 1 group I member 2 (Rattus norvegicus)
Assay: qHTS assay for small molecule activators of the rat pregnane X receptor (rPXR) signaling pathway (AID 651751); further: 0% is about no effect
Conditions: rPXR reporter cells, luciferase (One-Glo), 24 h
We begin with a simple list: items and their reported max response.
Express your answer in %, writing the number without its unit.

COMPOUND	ENDPOINT_RESULT
CC[C@H]1CCCC(O[C@H]2CC[C@H](N(C)C)[C@@H](C)O2)[C@@H](C)C(=O)C2=C[C@@H]3[C@@H](C=C[C@@H]4C[C@@H](O[C@@H]5O[C@@H](C)[C@H](OC)[C@@H](OC)[C@H]5OC)C[C@@H]34)[C@@H]2CC(=O)O1 (some centres not stated)	-7.6
CCOP(=O)(OCC)Oc1ccc([N+](=O)[O-])cc1	3.26
CCOP(=O)(OCC)SCS(=O)(=O)C(C)(C)C	5.96
O=[N+]([O-])Nc1nccn1Cc1ccc(Cl)nc1	-4.49
CSc1nnc(C(C)(C)C)c(=O)n1N	0.612

Lab note: measured max response of O=[N+]([O-])C(Br)Br was 1.81

Lab note: measured max response of O=C(O)c1c(Cl)ccc2cc(Cl)cnc12 was -2.15

Lab note: measured max response of COc1ccc(C(O)(c2cncnc2)C2CC2)cc1 (configuration not stated) was 3.59

Lab note: measured max response of C[N+]1(C)CCCCC1 was 3.55

====

We begin with a simple list: items and their reported max response.
Molecular target: Nuclear receptor subfamily 1 group I member 2 (Rattus norvegicus)
Test: qHTS assay for small molecule activators of the rat pregnane X receptor (rPXR) signaling pathway (AID 651751); further: 0% is about no effect
Conditions: rPXR reporter cells, luciferase (One-Glo), 24 h
Express your answer in %, writing the number without its unit.

Before answering, review these 3 worked examples.
>>> print(df.to_string())
                               smiles_input  endpoint_result
0  CS(=O)(=O)c1cc(C(F)(F)F)ccc1C(=O)c1cnoc1C1CC1            -4.39
1               COC(=O)/C=C(\C)OP(=O)(OC)OC           -0.069
2  Cc1cc(C)nc(NC(=O)NS(=O)(=O)c2ccccc2C(=O)OC2COC2)n1            -3.04

Lab note: measured max response of O=[N+]([O-])c1ccc(Oc2ccc(C(F)(F)F)cc2[N+](=O)[O-])cc1 was 11.4

Lab note: measured max response of Cc1cc(C)nc(Nc2ccccc2)n1 was 11.4

Lab note: measured max response of ClCc1ccccc1Cl was -0.702

Lab note: measured max response of CN(C)c1nc(=O)n(C2CCCCC2)c(=O)n1C was 1.22

====

Target: Peroxisome proliferator-activated receptor gamma (Homo sapiens) (UniProt P37231)
Sequence (P37231 whole entry, looked up): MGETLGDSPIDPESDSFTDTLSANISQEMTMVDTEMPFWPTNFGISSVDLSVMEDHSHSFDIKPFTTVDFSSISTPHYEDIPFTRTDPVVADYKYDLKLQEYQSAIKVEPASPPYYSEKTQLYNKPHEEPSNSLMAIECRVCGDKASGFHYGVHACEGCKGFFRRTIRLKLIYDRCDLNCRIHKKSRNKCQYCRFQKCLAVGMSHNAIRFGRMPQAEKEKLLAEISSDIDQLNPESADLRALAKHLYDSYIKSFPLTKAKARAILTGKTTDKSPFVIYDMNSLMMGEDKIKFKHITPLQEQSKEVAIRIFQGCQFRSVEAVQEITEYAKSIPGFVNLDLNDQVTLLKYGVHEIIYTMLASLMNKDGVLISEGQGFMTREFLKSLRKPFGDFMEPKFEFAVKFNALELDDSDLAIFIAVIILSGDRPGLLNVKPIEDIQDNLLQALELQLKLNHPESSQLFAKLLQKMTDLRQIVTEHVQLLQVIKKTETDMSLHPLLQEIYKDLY
Assay: qHTS assay for small molecule antagonists of peroxisome proliferator-activated receptor gamma signaling (AID 588537)
Settings: HEK293 PPARg-UAS-bla, beta-lactamase ratio, antagonist mode; series mostly up to 76.8 µM
Inconclusive results are not listed. Activity calls are given as the source filed them. Calls come from the whole dose curve; as a rule, active = well fitted inhibition curve with a large enough effect in the signal ratio, with a control signal flat (not every such curve was filed as active); inconclusive = small, poorly fitted or top-dose-only effect, or effect the other way, or a change in a side signal; inactive = flat fitted curve, though single readings scatter; the % refers to the signal ratio.
Parameter call: string, one of t (active), f (inactive)

Worked cases, answers included:
MOLECULE	DISCRETE_LABEL
O=[N+]([O-])C(Br)Br	f
c1cc(OCC2CO2)cc(OCC2CO2)c1 (centres undefined)	f
CCc1cnc(C2=NC(C)(C(C)C)C(=O)N2)c(C(=O)O)c1 (centres undefined)	f
N#Cc1c[nH]cc1-c1cccc2c1OC(F)(F)O2	t
CC(C)NC(=O)N1CC(=O)N(c2cc(Cl)cc(Cl)c2)C1=O	t

Record lookup: outcome of this test for CCN(CC)c1nc(C)cc(OP(=S)(OC)OC)n1 ?
f

Record lookup: outcome of this test for CCOP(=O)(SC(C)CC)N1CCSC1=O (centres undefined) ?
f

====

Experiment: qHTS assay for small molecule agonists of the antioxidant response element (ARE) signaling pathway (AID 651741); on activation: % of control where 0% means no effect
Conditions: HepG2 ARE-bla reporter, beta-lactamase FRET ratio, 16 h; series mostly up to 96 µM
Results filed as inconclusive are left out. Active and inactive are the calls of the source. The call rests on the fitted dose curve; in most records, active means well fitted activation curve with a large enough effect in the signal ratio; inconclusive means small, poorly fitted or top-dose-only effect, or effect the other way, or a change in a side signal; inactive means flat fitted curve, though single readings scatter; the % refers to the signal ratio.
Parameter call: string, one of t (active), f (inactive)

Worked cases, answers included:
>>> df
                                   molecule  discrete_label
0  O=C1c2ccccc2C(=O)C1C(=O)C(c1ccccc1)c1ccc(Cl)cc1 (centres undefined)               t
1  CCOP(=O)(SC(C)CC)SC(C)CC (centres undefined)               f
2  CCC[CH2][Sn]([CH2]CCC)([CH2]CCC)[CH2]CCC               f

Record lookup: outcome of this test for CCCCC(CC)C(=O)Cl (centres undefined) ?
f

====

We begin with a simple list: items and their reported activation.
Biological target: Bile acid receptor (Homo sapiens) (UniProt Q96RI1)
Sequence (Q96RI1 whole entry, looked up): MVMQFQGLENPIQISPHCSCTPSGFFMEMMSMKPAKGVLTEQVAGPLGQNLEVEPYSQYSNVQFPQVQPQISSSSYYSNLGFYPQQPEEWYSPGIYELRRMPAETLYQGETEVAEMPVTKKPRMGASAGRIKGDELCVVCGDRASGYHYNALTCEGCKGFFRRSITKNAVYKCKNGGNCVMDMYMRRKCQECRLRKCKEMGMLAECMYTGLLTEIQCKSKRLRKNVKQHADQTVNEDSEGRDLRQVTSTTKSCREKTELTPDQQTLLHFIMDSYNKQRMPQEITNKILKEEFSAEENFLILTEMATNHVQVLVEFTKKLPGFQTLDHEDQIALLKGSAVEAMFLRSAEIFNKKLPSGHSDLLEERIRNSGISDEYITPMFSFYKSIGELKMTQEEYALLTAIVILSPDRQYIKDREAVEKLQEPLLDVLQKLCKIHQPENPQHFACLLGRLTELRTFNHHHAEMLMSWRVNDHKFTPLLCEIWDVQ
Experiment: qHTS assay for small molecule agonists of farnesoid X receptor signaling (AID 588527);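 further: 0% = vehicle basal and 100% = reference agonist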
Details: HEK293T FXR-UAS-bla, beta-lactamase ratio, 16 h; active compounds read high
Results filed as inconclusive are left out.
Express your answer in %, writing the number without its unit.

Before answering, review these 2 worked examples.
                                   compound      metric  measurement_units  endpoint_result
0          CC(=O)N(CCN(C(C)=O)C(C)=O)C(C)=O  activation                  %             1.43
1  CC1=CC(=O)CC(C)(C)C1(O)/C=C/C(C)=C\C(=O)O (configuration not stated)  activation                  %            -3.19

Lab note: measured activation of N#CSCSc1nc2ccccc2s1 was 15

====

Test system: ECU
Assay: qHTS profiling for inhibitors of Plasmodium falciparum proliferation (AID 504749); further: nearly all actives have a fitted effect of over 60% in size
Settings: P. falciparum in erythrocytes, SYBR Green DNA, 72 h; series mostly up to 28.7 µM
Records with an inconclusive call do not appear. Calls of active or inactive are those of the source. Calls follow the shape of the dose curve; as a rule, active = well fitted inhibition curve with a large enough effect; inconclusive = small, poorly fitted or top-dose-only effect; inactive = flat fitted curve, though single readings scatter.
Parameter call: string, one of YES = active, NO = inactive

Worked cases, answers included:
>>> print(df.to_string())
                                   molecule  discrete_label
0  CCCN1CCCC2Cc3nc(N)ncc3CC21 (centres undefined)              NO
1  CCCCCC(O)C1C(=O)OC(C)C(O)\C=C/C=C\C=C/C=C\C=C(\C)C(O)C(O)C(O)CC(O)CC(O)CC(O)CC(O)CC1O (centres undefined)              NO
2    CC(Cc1ccccc1)N(C)C (centres undefined)              NO

Let's switch to this molecule now.
Record lookup: outcome of this test for C[C@@H]1CC[C@H]2[C@@H](C)C(=O)O[C@@H]3OC4(C)CC[C@@H]1C32OO4 (some centres undefined) ?
YES

====

Molecular target: Ubiquitin carboxyl-terminal hydrolase 1 (Homo sapiens) (UniProt O94782)
Sequence (O94782 whole entry, looked up): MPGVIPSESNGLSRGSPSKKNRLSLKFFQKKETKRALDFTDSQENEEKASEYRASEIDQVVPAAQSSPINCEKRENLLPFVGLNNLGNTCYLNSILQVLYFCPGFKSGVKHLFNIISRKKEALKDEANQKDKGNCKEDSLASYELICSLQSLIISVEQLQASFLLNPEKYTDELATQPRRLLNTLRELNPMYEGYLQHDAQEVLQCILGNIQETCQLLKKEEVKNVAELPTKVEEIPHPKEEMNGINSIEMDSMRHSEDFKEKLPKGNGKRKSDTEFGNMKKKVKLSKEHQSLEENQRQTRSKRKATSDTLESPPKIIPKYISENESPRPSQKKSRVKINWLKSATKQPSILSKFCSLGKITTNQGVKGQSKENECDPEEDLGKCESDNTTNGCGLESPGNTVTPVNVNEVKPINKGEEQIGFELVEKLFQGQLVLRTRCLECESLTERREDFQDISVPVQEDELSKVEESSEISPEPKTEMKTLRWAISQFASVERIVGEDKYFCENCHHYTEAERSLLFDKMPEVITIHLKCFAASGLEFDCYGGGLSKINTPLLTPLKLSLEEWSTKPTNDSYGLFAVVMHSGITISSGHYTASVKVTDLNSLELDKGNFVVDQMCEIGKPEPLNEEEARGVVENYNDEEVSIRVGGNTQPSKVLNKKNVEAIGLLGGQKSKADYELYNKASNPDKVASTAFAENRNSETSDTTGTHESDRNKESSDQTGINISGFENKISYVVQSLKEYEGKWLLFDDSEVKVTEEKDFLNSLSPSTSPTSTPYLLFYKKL
Test: Inhibitors of USP1/UAF1: Pilot qHTS (AID 504865); further: nearly all actives have a fitted effect of over 35% in size
Conditions: purified USP1/UAF1, Ub-rhodamine cleavage fluorescence; series mostly up to 114 µM
Records with an inconclusive call do not appear. The source made the active and inactive calls. Calls come from the whole dose curve; as a rule, active = well fitted inhibition curve with a large enough effect; inconclusive = small, poorly fitted or top-dose-only effect; inactive = flat fitted curve, though single readings scatter.
Parameter call: string, one of active, inactive

COMPOUND	TESTED_SYSTEM	DISCRETE_LABEL
CC(C)N(C(=O)CCl)c1ccccc1	Ubiquitin carboxyl-terminal hydrolase 1 (Homo sapiens) (UniProt O94782)	inactive
CN1[C@@H]2CC(OC(=O)[C@@H](CO)c3ccccc3)C[C@@H]1[C@H]1O[C@H]12 (some centres not stated)	Ubiquitin carboxyl-terminal hydrolase 1 (Homo sapiens) (UniProt O94782)	inactive
Cc1ccc2c(c1)[C@@H]1CN(C)CC[C@H]1N2	Ubiquitin carboxyl-terminal hydrolase 1 (Homo sapiens) (UniProt O94782)	inactive
C[C@]12CCC3C(CC[C@]4(O)C[C@@H](O)CC[C@]34C=O)[C@@]1(O)CC[C@@H]2C1=CC(=O)OC1 (some centres not stated)	Ubiquitin carboxyl-terminal hydrolase 1 (Homo sapiens) (UniProt O94782)	inactive
COC(=O)/C(C)=C\CC12OC(C)(C)C3CC(C=C4C(=O)c5c(OC)c6c(c(CC=C(C)C)c5OC431)OC(C)(CCC=C(C)C)C=C6)C2=O (configuration not stated)	Ubiquitin carboxyl-terminal hydrolase 1 (Homo sapiens) (UniProt O94782)	active
COC(=O)C1C(OC(=O)c2ccccc2)CC2CCC1N2C (configuration not stated)	Ubiquitin carboxyl-terminal hydrolase 1 (Homo sapiens) (UniProt O94782)	inactive
COc1ccc(C2Oc3c(I)c(OC)cc(OC)c3CC2O)cc1OC (configuration not stated)	Ubiquitin carboxyl-terminal hydrolase 1 (Homo sapiens) (UniProt O94782)	inactive
C=CCN1CC[C@]23c4c5ccc(O)c4OC2C(=O)CC[C@]3(O)C1C5 (some centres not stated)	Ubiquitin carboxyl-terminal hydrolase 1 (Homo sapiens) (UniProt O94782)	inactive

Record lookup: outcome of this test for C[N+]12CCC(CC1)[C@@H](OC(=O)C(O)(c1ccccc1)c1ccccc1)C2 ?
inactive

Record lookup: outcome of this test for CC(=O)OC1CCC2(C)C3=C(CCC2C1(C)C)[C@@]1(C)CCC(C(C)CCC=C(C)C)[C@@]1(C)CC3 (some centres not stated) ?
inactive

Record lookup: outcome of this test for CCC(=O)OC1(c2ccccc2)CCN(C)CC1C (configuration not stated) ?
inactive

Record lookup: outcome of this test for O=C1CC2OCC=C3CN4CCC56c7ccccc7N1C5[C@H]2[C@H]3C[C@H]46 (some centres not stated) (tested in a mixture with another compound) ?
inactive
